Entries annotated with measured growth
# Test system: 786-0 renal
# run.description: NCI-60 one-dose screen, 48 h (100 = growth as untreated, 0 = no growth, -100 = all killed)
# assay.setup: 10 µM unless noted
Compounds without any hit were thinned out: in the full panel of roughly 83,000, 20% have a hit.
Please state the figure in %; there is no need to write the unit.

Known growth results, listed for orientation:
CN(CCCCCCCCNc1ccnc2ccccc12)Cc1ccc(-c2ccc(-c3ccc(C#N)cc3)s2)cc1; -89.8
CCNCCNc1cc(-c2ccc(F)cc2)c(C#N)c2nc3ccccc3n12; 57.9

*Q* Given COc1ccc(CN2C(=O)/C(=C\c3cc(OC)c(OC)c(OC)c3)c3ccccc32)cc1 , respond with its growth.
*A* 1.15

*Q* Given CC(=O)Nc1ccc(-c2cc3c(NCc4ccc(F)cc4)ncnc3s2)cc1 , respond with its growth.
*A* 82.7

*Q* Given Cc1[nH]c(-c2nc3ccccc3[nH]2)c(C)c1C(=O)N1CCc2sccc2C1 , respond with its growth.
*A* 99.7

*Q* Given COc1ccc(/C=N/NC(=O)Cn2c(-c3ccc(S(C)(=O)=O)cc3)nc3cc(Cl)ccc32)cc1 , respond with its growth.
*A* 39.2

*Q* Given C[C@@H](C[C@H](CCOCc1cccnc1)c1ccccc1)c1cc2ccccc2o1 , respond with its growth.
*A* 93.8

*Q* Given CSc1ncc(C)c(Nc2ccc(Cl)cc2)n1 , respond with its growth.
*A* 91.9

*Q* Given O=C(O)C1C[C@](O)(c2ccc(F)cc2)[C@@H](c2ccc(F)cc2)O1 (stereo partly drawn) , respond with its growth.
*A* 95.6

*Q* Given Cn1c(NCCc2ccc(O)c(O)c2)nc2c1c(=O)n(Cc1ccc(Cl)cc1)c(=O)n2C , respond with its growth.
*A* 92.1

*Q* Given Cc1cc(=O)[nH]c(N/N=C/c2cc(Br)ccc2O)n1 , respond with its growth.
*A* 7.2

*Q* Given NC(=O)c1c(NC(=O)c2ccc(C(F)(F)F)cc2Cl)sc2c1CCC(=O)C2 , respond with its growth.
*A* 17.1

*Q* Given NC(N)=N/N=C/c1ccc(Br)cc1 , respond with its growth.
*A* -38.3

*Q* Given O=C1CSC(c2ccccc2)N1c1ccccc1 (stereo not drawn) , respond with its growth.
*A* 105

*Q* Given CN(C)CCC(O)(Cc1ccccc1)c1ccccc1 (stereo not drawn) , respond with its growth.
*A* 105

*Q* Given C=C1c2c(C)nn(-c3ccc(NC(C)=O)cc3)c2N(C)C23CC1C1(C)c4c(C)nn(-c5ccc(NC(C)=O)cc5)c4N(C)C(C)(CC12)C3 (stereo not drawn) , respond with its growth.
*A* 43.5

====

# System: COLO 205 colon
# run.description: NCI-60 one-dose screen, 48 h
# assay.setup: 10 µM unless noted
# Experimental: Cells are grown in 96 well plates and exposed to the test compound for 48 hours. Compounds are tested at a single concentration, which is 10^-5 M for most compounds. The reported endpoint is percent growth (GI% or GIPRCNT), where numbers from 0 - 100% represent growth inhibition, and numbers from -100% - 0 represent cell death. For example, a value of 40 represents 60% growth inhibition. A value of 0 means no net growth occurred over the course of the experiment. […]
The panel holds about 83,000 compounds, 20% with a hit somewhere; the sample as a whole holds those more often. Activity calls are given as the source filed them. Rule for the calls: active = growth percent below 10; inactive = the rest.
Your answer must be one of the following: active, inactive

*Q* Name the outcome recorded for Cn1nnnc1-c1ccc(N)cc1 in the assay.
*A* inactive

*Q* Name the outcome recorded for COc1cc2oc(-c3cccc(C(=O)Nc4ccc(C)cc4)c3)cc(=O)c2c(OC)c1OC in the assay.
*A* active

*Q* Name the outcome recorded for C#C[C@]1(O)CC[C@H]2[C@@H]3CC=C4c5sc(N=C(N)N)nc5CC[C@]4(C)[C@H]3CC[C@@]21C in the assay.
*A* active

*Q* Name the outcome recorded for CO/C(=C1/NC(=O)C(Cc2ccc(O)c(Br)c2)N(C)C(=O)C(C)NC(=O)CCC/C=C(\C)CCC(C)OC1=O)c1ccccc1 (stereo unspecified) in the assay.
*A* active

*Q* Name the outcome recorded for COc1ccc(/C(C)=C(\c2ccc(Cl)cc2)c2ccc(OCCN3CCCC3)cc2)cc1F in the assay.
*A* active

*Q* Name the outcome recorded for Cc1ccc(S(=O)(=O)NN/C(N)=N\S(=O)(=O)c2cc(C)c(Cl)cc2SCc2ccccc2)cc1 in the assay.
*A* inactive
